Target under test: SARS-CoV-2 Wuhan-Hu-1 RBD (SARS-CoV-2, Wuhan-Hu-1 (GenBank …, UniProt P0DTC2))
Procedure summary: BLI
Assay context: both partners purified
Observed property: binding result

INSERT INTO assay_data (binder, observed_property, value) VALUES
  ('JR307 (antibody, V domains shown) VH: EVQLVESGGGLVQPGGSLRLSCEVSGFTFSNYWMHWVRQAPGKGLVWVSRVDSDGNSTTYADSVNGRFTISRDNAKNTLYLQMKSLRAEDTAIYYCTRDCENCRHWYFDLWGRGTLVTVS VL: SYELTQPPSVSVTPGQTARIACGGNNIGTKGVHWYQQRPGQAPVLVVYDDENRPSGIPERFSGSNSGDTATLIITWVEAGDEADYYCQVWHGLSDHPVFGGGTRLTVL', 'binding result', 'binds');
